Biological target: P2X4 (Homo sapiens)
Experiment: Assay B: human P2X4 receptor cell line, mitochondrial photina luminescence (agonist Bz-ATP at EC50)
Type: cell-based
Set-up: host or cells: HEK 293 (recombinant, constitutively expressing; with mitochondrial photina in Assay B)
Conditions: HEK human P2X4 cell line, photina luminescence, agonist Bz-ATP at EC50, average
I'd appreciate it if you could supply IC50 values for the items below.
Give just the number in nM; leave the unit off.

IN: Entry `NS(=O)(=O)c1cc(NC(=O)Cc2ccccc2Cl)ccc1OCc1ccc(F)cc1` has what IC50?
OUT: 39

IN: Would you mind telling me what IC50 value was observed for `Cc1ccc(Cl)c(CC(=O)Nc2ccc(Oc3cccc(Cl)c3)c(S(N)(=O)=O)c2)c1Cl` ?
OUT: 380

IN: Given the entry `NS(=O)(=O)c1cc(NC(=O)Cc2ccccc2Cl)ccc1OC1CCOCC1` , report its measured IC50.
OUT: 100

IN: Which IC50 is listed for `NS(=O)(=O)c1cc(NC(=O)Cc2ccc(F)cc2Cl)ccc1Oc1ccc(Cl)cc1` ?
OUT: 121

IN: Fill blank: measured IC50 of the molecule `NS(=O)(=O)c1cc(NC(=O)Cc2ccccc2)cnc1Oc1cccc(C(F)(F)F)c1` is ____.
OUT: 1030

IN: Which IC50 is reported for this molecule? `COc1ccc(Oc2ccc(NC(=O)Cc3ccccc3Cl)cc2S(N)(=O)=O)cc1`
OUT: 166

IN: Which IC50 is listed for `NS(=O)(=O)c1cc(NC(=O)Cc2cccc(OCCO)c2)ccc1Oc1cccc(Cl)c1` ?
OUT: 406

IN: Requested field: IC50. Item: `N#Cc1cc(Oc2ccc(NC(=O)Cc3ccccc3Cl)cc2S(N)(=O)=O)ccc1F`
OUT: 862

IN: Consider the molecule shown here: `NS(=O)(=O)c1cc(NC(=O)Cc2cc(Cl)ccc2Cl)ccc1Oc1cccc(Cl)c1` What is its recorded IC50?
OUT: 305

###

Target: P2X4 (Homo sapiens, UniProt Q99571)
Sequence (Q99571 whole entry): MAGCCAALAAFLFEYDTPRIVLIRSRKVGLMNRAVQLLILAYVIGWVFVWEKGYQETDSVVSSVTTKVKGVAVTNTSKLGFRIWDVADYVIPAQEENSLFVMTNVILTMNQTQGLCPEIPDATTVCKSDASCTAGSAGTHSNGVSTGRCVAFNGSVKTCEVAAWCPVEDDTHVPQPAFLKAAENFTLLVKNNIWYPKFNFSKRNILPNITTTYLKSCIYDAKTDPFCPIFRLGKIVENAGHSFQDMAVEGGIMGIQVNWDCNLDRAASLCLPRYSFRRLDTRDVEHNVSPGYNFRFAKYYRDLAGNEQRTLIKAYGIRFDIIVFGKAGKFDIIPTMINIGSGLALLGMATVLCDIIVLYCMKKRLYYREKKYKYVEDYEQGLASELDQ
Test: Assay A: human P2X4 receptor cell line, FLIPR calcium assay (Fluo-8, agonist Bz-ATP at EC80)
Assay type: cell-based
Design: host or cells: HEK 293 (recombinant, constitutively expressing; with mitochondrial photina in Assay B)
Conditions: percentage of maximal inhibition; HEK human P2X4 cells, Fluo-8 FLIPR; read-out: human P2X4 Assay A avg Efficacy
Quantity: Emax

IN: Form field: reported Emax of Cc1cc(NC(=O)Cc2ccccc2)cc(S(N)(=O)=O)c1Oc1cccc(Cl)c1 [Example 271]
OUT: 84%

IN: Endpoint output: Emax of COc1ccccc1Oc1ccc(NC(=O)Cc2ccccc2Cl)cc1S(N)(=O)=O [Example 032] . Value?
OUT: 100%

IN: Look up Emax for this compound: NS(=O)(=O)c1cc(NC(=O)Cc2ccccc2Cl)ccc1OCC1CCO1 (stereo not drawn) [Example 158]
OUT: 91%

###

Target: P2X4 (Homo sapiens, UniProt Q99571)
Test: Assay B: human P2X4 receptor cell line, mitochondrial photina luminescence (agonist Bz-ATP at EC50)
Format: cell-based
Parameters: host or cells: HEK 293 (recombinant, constitutively expressing; with mitochondrial photina in Assay B)
Conditions: HEK human P2X4 cell line, photina luminescence, agonist Bz-ATP at EC50, average
Quantity: IC50

IN: Record request: IC50 value, item NS(=O)(=O)c1cc(NC(=O)Cc2ccccc2Cl)ccc1OC1CCS(=O)(=O)C1 (stereo not drawn)
OUT: 149 nM

IN: Any idea what its IC50 is? The molecule is `COCCOc1cccc(CC(=O)Nc2ccc(Oc3cccc(Cl)c3)c(S(N)(=O)=O)c2)c1`
OUT: 491 nM

IN: Quick one: IC50 for `COc1ccc(CC(=O)Nc2ccc(Oc3ccc(Cl)cc3)c(S(N)(=O)=O)c2)c(Cl)c1` ?
OUT: 787 nM

IN: So what's the measured IC50 for this one? `NS(=O)(=O)c1cc(NC(=O)Cc2ccccc2Cl)ccc1OCc1ccncc1`
OUT: 69 nM

IN: Please give the measured IC50 for this molecule: `NS(=O)(=O)c1cc(NC(=O)Cc2ccccc2C(F)F)ccc1Oc1cccc(Cl)c1`
OUT: 145 nM

IN: Request the reported IC50 associated with `NS(=O)(=O)c1cc(NC(=O)Cc2ccccc2)ccc1OC1CCCC1`
OUT: 4030 nM

IN: Any idea what its IC50 is? The molecule is `COc1cccc(Cl)c1CC(=O)Nc1ccc(Oc2cccc(Cl)c2)c(S(N)(=O)=O)c1`
OUT: 59 nM

IN: Please report the recorded IC50 for `Cc1ccc(Br)c(Cl)c1CC(=O)Nc1ccc(Oc2cccc(Cl)c2)c(S(N)(=O)=O)c1` .
OUT: 640 nM

IN: So what's the measured IC50 for this one? `NS(=O)(=O)c1cc(NC(=O)Cc2ccccc2Cl)ccc1Oc1ccc(N2CCOCC2)cc1`
OUT: 2630 nM

IN: Recorded IC50 of `N#Cc1ccc(Oc2ccc(NC(=O)Cc3ccccc3Cl)cc2S(N)(=O)=O)cc1` , please.
OUT: 5080 nM

IN: Item under review: `CC1(COc2ccc(NC(=O)Cc3ccccc3Cl)cc2S(N)(=O)=O)CCOCC1` . Reported IC50?
OUT: 859 nM

IN: Using the record for `NS(=O)(=O)c1cc(NC(=O)Cc2ccc(F)cc2)ccc1Oc1ccc(Cl)cc1` , report its IC50.
OUT: 1850 nM
